Literature compilation of IC50 measurements on UniProt:P00533.

[
  {
    "smiles.record": "Cc1cccc2c1/C(=C/c1ccc(N3CCOCC3)cc1)C(=O)N2",
    "IC50": "> 100 µM"
  },
  {
    "smiles.record": "CC#CC(=O)N1CCCC[C@H]1c1nc(-c2ccc(C(=O)Nc3cc(Cl)ccn3)cc2)c(C(N)=O)n1N",
    "IC50": "> 30 µM"
  },
  {
    "smiles.record": "CSc1ccc(/C=C2\\C(=O)Nc3ccccc32)s1",
    "IC50": "> 100 µM"
  },
  {
    "smiles.record": "COc1cc2ncnc(Oc3ccc(NC(=O)Nc4ccc(Br)cc4)cc3)c2cc1OC",
    "IC50": "> 10 µM"
  }
]
